# assay_remarks: yeast display, Sf9 membrane polyspecificity reagent, FACS + sequencing; frameworks hold sequencing errors
observed_property: polyreactivity (PSR sort gate)

sequence_data | result
QVQLVESGGGLVQAGGSLRLSCAASGRTFYDYAMGWYRQAPGKERELVAASSRRAGSTYYADSVKGRFTISRDNAKNTVFLEMNSLKPEDTSVYYCAAAYYRRWWRGHHYAFDYWGQGSQVTVSS | high polyreactivity
QVQLVESGGGLVQAGGSLRLSCAASGFTFYWYAMGWYRQAPGKEREFVAAIDQSGGSTYYADSVKGRFTISRDNAKNTVYLQMNSLKPEDTAVYYCAARYILWDGDSWTEFDYWGQGTQVTVSS | low polyreactivity
QGQLVESGGGLVQAGGSLRLSCAASGSTFYIYAMGWYRQAPGKERELVARISGSGGSTYYADSVKGRFTISRDNAKNTVYLQMNSLKPEDTAVYYCAADDIYKYYQYYAFPYYRYDYWGQGTQVTVSS | low polyreactivity
QVQLVESGGGLVQAGGSLRLSCAASGRTFYYYGMGWYRQAPGKERELVASITNGGNTNYADSVKGRFTISRDNAKYTVYLQMNSLKPEDTAVYYCAKDVPYWRPVVRYDYWGQGTQVTVSS | low polyreactivity
QVQVVESGGGLVQAGGSLRLSCAASGSTFWWYAMGWYRQAPGKERELVAAITSGGSTNYADSVKGRFTISRDNAKNTVYLQMNSLKPEVTAFYYCAKVPRPLVYYIRLGYWGQGTQVTVSS | high polyreactivity
QVQLVESGGGLVQAGGSLRLSCAASGRIFYSYAMGWYRQAPGKEWELVAVNTGGGRTYYADSVKGRFTISRDNAKNTVYLQMNSLKPEDTAVYYCAYRYGGTFRYDYWGQGTQVTVSS | high polyreactivity
QVQLVESGGGLVQAGGSLRLSCAASGRILGLYAMGWYRQAPGKESELVAAISRGGGSTYYADSLKGRFTISRDNAKNTVYLQMNSLKPEDTAVYYCATGLGYFSRLDYWGQGTQVTVSS | low polyreactivity
QVQLVESGGGLVQAGGSLRLSCAASGSIFGYYAMGWYRQAPGKERELVAAISSGDSTYADSVKGRFTISRDNAKNTVYLQMNSLKPEDTAVYYCAADEYYTFSSFELRRMDYWGQGTQVTVSS | low polyreactivity
QVQLVESGGGLVQAGGSLRLSCAASGRTLVKNAMGWYRQAPGKERELVAAISTSGGRTYYADSVKGRFTISRDNAKNTVYLQMNSLKPEDTAVYYCAAVLYATRPVYGFDSWGQGTQVTVSS | high polyreactivity
QVQLVESGGGLVQAGGSLRLSCAASGYTFYVYAMGWYRQAPGTERELVADISTSDGSTYYADSVKGRFTISRDNAKNTVYLQMNSLKPEDTAVYYCNTDGSHGLYDWFWPANNDYWGQGTQVTVSS | low polyreactivity
QVQLVESGGGLVQAGGSLRLTCAASRLTFDDNAMGWYRQAPGKERELVAAISYNGGSTYYADSVKGRFTISRDNAKNTVYLQMNSLKPEDTAVYYCAADISVGRYGDMDYWGQGTQVTVSS | low polyreactivity
QVQLVESGGGLVQAGGSLRLSCAASGITFSYNAMGWYRQAPGKEREFVAAISSNSDSTYYADSVKGRFTISRDTAKITVYLQMNSLKPEDTAVYYCAADTPDAPDYSGFYYWGQGTQVTVSS | low polyreactivity
QVQLVESGGGLVQAGGSLRLSCAASGSTFSYYDMGWYREAPGKERELVAVITTSGVSTYYADSVKGRFTISRDNAKNTVYLQMNSLKPEDTAVYYCNADYGYDSVVEYDYWGQGTQVTVSS | low polyreactivity
QVQLVESGGGLVQAGGSLRLTCAASGFIFRYYAMGWYRPATGKEMELVAAISRGGSTNYADSVKGRFTISRDNAKYTVYLQMNSLKPEDTAVYYCASRKGRSKQGYYYWGQGTQVTVSS | high polyreactivity
QVQLVESGGGLVQAGGSLRLSSAASGRIFAGNAMGWYRQAPGKERELVAVISKGGGRTYYADSVKGRFTISRDNAKNTVYLQMNSLKPEDTAVYDCDAEGSYWFRRYGYWGQGTQVTVSS | high polyreactivity
QVHLVESGGGLVQAGGSLRLSCAASGSTFVANTMRWSRQAPGKERELVASITSGDSTNYADSVKGRFTISRDNAKNTVYLQMNSLKPEDTAVYYCSAETVWYYVGGQLIYYSWGQGTQVTVSS | low polyreactivity
QVQLVESGGGLVQAGGSLRLSCAASGSIFRRNAMGWYRQAPGKERELVAAISSNGGSTYYADSVKGRFTISRDNAKNTVYLQMNSLKQEDTAVYYFNALGRVRYSPRYGYDYWGLGTQVTVSS | high polyreactivity
QVQLVESGGGLVQAGGSLRLSCAASGITFNLNDMGWYRQAPGKERELVAAITSGGNTSYADSVKGRFTISRDNAKNTVDLQMNSLKPEDTAVYYCATEDFRTDTGMYYWGQGTQVTVSS | low polyreactivity
QVHLVESGGGLVQAGGSLRLSCAASGITFRRYGMGWYRQAPGKERELVATITSSVGSRTYYADSVKGRFTISRDNAKNTVYLQMNSLKPEDTAVYYCAADHRVYDYEYWGQGTQVTVSS | low polyreactivity
QVQLVESGGGLVQAGGSLRLSCAASGLTFPYYVMGWYRQAPGKERELVAAISSSGGSTYYADSVKGRFTISRDNAKNTVYLQMNSLKPEDTAVYYCNALGHFSKIATYDYWGQGTQVTVSS | low polyreactivity
QVQLVESGGGLVQAGGSLRLSCAASGRTFWSNAMGSYRQAPGKERELVAAINTSGGNTYYADSVKGRFTISRDNAKNTVYLQMNSLKPEDTAVYFCNTDGLVRNGPFYSWGQGTQVTVSS | low polyreactivity
